- Test system: MOLT-4 leukemia
- test_description: NCI tumour cell line growth inhibition, 48 h
For each record, write down the corresponding TGI.

# input Fill in the blank: the reported TGI of Oc1cccc2ccc(SSc3ccc4cccc(O)c4n3)nc12 is ____.
# output > 100 µM

# input What value of TGI has been recorded for this entry: CSc1nc2c(nc(N)n2C2OC(CO)C(O)C(O)C2O)c(=O)[nH]1 (stereo unspecified)
# output > 100 µM

# input Item CC(=O)NNc1ncc(C(=O)/C=C/c2ccccc2C)s1 has what recorded TGI?
# output > 100 µM

# input Report TGI for COc1ccc2c(c1)C(=O)/C(=C/c1ccc(O)cc1)O2 please.
# output 6.06 µM

# input Can you look up the measured TGI of COc1ccc(C2=NN(C(C)=O)c3nc4ccccc4nc3O2)cc1 for me?
# output > 100 µM

# input Reported TGI for Cc1nc(-c2cccnc2)sc1C(=O)CC(=O)C(=O)Nc1cccc(NC(=O)C(=O)CC(=O)c2sc(-c3cccnc3)nc2C)n1 : what is it?
# output > 100 µM

# input Which value of TGI has been reported for CC(C)CC(C#CCCOC(=O)c1ccccc1)OC(=O)c1ccccc1 (stereo unspecified) in the records?
# output > 10 µM

# input Looking for the measured TGI of CCN(CC)CCOCCOCC1(c2ccc(Cl)c(Cl)c2)CCCCC1 , can you help?
# output 13.2 µM

# input Recorded TGI for C/C(=N\N)C(CN1CCOCC1)C(c1ccccc1)c1c(O)c2ccccc2oc1=O (stereo unspecified) , please?
# output > 80.8 µM

# input Bench note: what TGI did CCCCNC(=O)Oc1ccc(/C(=C(\C)c2ccc(OC)cc2)c2ccc(OCCN3CCCCC3)cc2)cc1 show?
# output 71.9 µM

# input // lookup TGI for COc1nc2c(c(=O)n1C)CN(c1ccccc1)C(=O)CN2C
# output > 100 µM

# input Given the entry Cn1cnc(SC2=CC(=O)C=C3S[C@H]4C[C@@]23c2c(c(O)c3c5c2=NCCC=5C=N3)N4)c1CC(N)C(=O)O (stereo partly specified) , report its measured TGI.
# output 8.98 µM

# input Which TGI reading was recorded for the compound O=P(O)(O)c1ccc2c(c1)OCCOCCOCCOCCO2 ?
# output > 100 µM

# input Name the reported TGI value associated with the compound N#CC12CC(C=O)=C(N)C1(C#N)CC(C=O)=C2N (stereo unspecified)
# output > 100 µM

# input Entry under review: C[C@@H](c1ccccc1)N1C[C@@H](c2ccc3c(c2)OCO3)[C@@H]2C(=O)CCC[C@@H]21 . Reported TGI?
# output 77.6 µM

# input Param item = COC(=O)C(/C(=N/N)C(=O)Nc1cc(Cl)ccc1Cl)c1nc2ccc([N+](=O)[O-])cc2[nH]c1=O (stereo unspecified) ; retrieve measured TGI.
# output > 100 µM

# input Recorded TGI for CCCC[n+]1ccn(-c2nc3ccccc3n2C)c1 , please?
# output > 100 µM

# input Fill in the blank: the reported TGI of O=C(/C=C/c1ccc(-c2ccccc2)cc1)c1ccccc1 is ____.
# output > 100 µM

# input # lookup: TGI of C=CCN=C1NC(=O)C(CC(=O)Nc2cccc(Cl)c2)S1 (stereo unspecified)
# output > 100 µM

# input Dear colleague, I am looking for the recorded TGI of the following compound: NC1=C(O)/C(=N/NS(=O)(=O)c2ccccc2)C(c2ccc3c(c2)OCO3)O1 (stereo unspecified)
# output > 100 µM

# input What does the data say about its TGI? Entry: C#Cc1cccc(Nc2nc(C)nc3cc(NC(=O)CCl)ccc23)c1
# output 2.27 µM

These data points were gathered from PubChem BioAssay (NCI).
